B1: glmS ribozyme (parent)
chain: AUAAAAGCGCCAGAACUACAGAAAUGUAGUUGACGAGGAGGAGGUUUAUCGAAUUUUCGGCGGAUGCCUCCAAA

- Variants of: B1
- EXPERIMENT DESCRIPTION: self-cleavage kobs at 10000 uM GlcN6P; higher = faster cleavage; RNA array
- MEASUREMENT SETUP: with glucosamine-6-phosphate
This sample holds only a part of the variants without activity.
Kindly note that classification relies on self-cleavage kobs at 10000 uM GlcN6P with these boundaries: zone 1 (below 0.0004 s⁻¹), zone 2 (0.0004 s⁻¹ to below 0.001 s⁻¹), zone 3 (0.001 s⁻¹ or more)

| MUTATION NAME | ASSIGNED LABEL |
| --- | --- |
| G7U A48G C50G C61G | zone 2 |
| U54C C58G | zone 1 |
| U45C A48U | zone 1 |
| A14U G41U G44U | zone 1 |
| A12G A64U C67G | zone 1 |
| C11U G29U U54A | zone 2 |
| U31A | zone 3 |
| A15C A48U | zone 1 |
| G29C G38A | zone 1 |
| U49A G60C | zone 1 |
| U69C C71U | zone 2 |
| A36C G59A | zone 1 |
| G40U U65G | zone 3 |
| U47G A64G | zone 3 |
| A14U U46G | zone 3 |
| C11U C16G | zone 2 |
| A33C G62C | zone 1 |
| G29A A33C | zone 1 |
| C8U A12C A15U G38U A64U | zone 1 |
| G43A C50G | zone 1 |
| U30G A64G | zone 3 |
| G7C C34A A48G U56G C71U | zone 1 |
